Entry source: patent US10294234B2

conditions: rat liver microsomes 0.5 mg/mL, 1 uM compound, NADPH
Param threshold (0.5 L/H/kg) applies to Rat. Pred. Cl.; output y when value >= threshold, n when value < threshold.

Smiles	Category label
COC(=O)N[C@H](C(=O)N[C@@H](Cc1ccc(C#Cc2ccc(N3C[C@H]4C[C@@H]3CN4C3COC3)nc2)cc1)[C@@H](O)CN(Cc1c(F)cc(-c2ncccn2)cc1F)NC(=O)[C@@H](NC(=O)OC)C(C)(C)C(F)(F)F)C(C)(C)C(F)(F)F	y
COC(=O)N[C@H](C(=O)N[C@@H](Cc1ccc(C#Cc2ccc(N3C[C@H]4C[C@@H]3CN4C3COC3)nc2)cc1)[C@@H](O)CN(Cc1c(F)cc(-c2ccn(CC(F)F)n2)cc1F)NC(=O)[C@@H](NC(=O)OC)C(C)(C)C(F)(F)F)C(C)(C)C(F)(F)F	y
COC(=O)N[C@H](C(=O)N[C@@H](Cc1ccc(C#Cc2cnc(N3CCN(C4COC4)CC3)nc2)cc1)[C@@H](O)CN(Cc1c(F)cc(-c2ccn(C(F)F)n2)cc1F)NC(=O)[C@@H](NC(=O)OC)C(C)(C)C(F)(F)F)C(C)(C)C(F)(F)F	n
CC(C)([C@H](NC(=O)C1CC1)C(=O)N[C@@H](Cc1ccc(-c2cnn(C(F)F)c2)cc1)[C@@H](O)CN(Cc1c(F)cc(-c2cnn(C(F)F)c2)cc1F)NC(=O)[C@@H](NC(=O)C1CC1)C(C)(C)C(F)(F)F)C(F)(F)F	n
COC(=O)N[C@H](C(=O)NN(Cc1c(F)cc(-c2ccn(C3CC3)n2)cc1F)C[C@H](O)[C@H](Cc1ccc(C#Cc2ccc(N3C[C@H]4C[C@@H]3CN4C3COC3)nc2)cc1)NC(=O)[C@@H](NC(=O)OC)C(C)(C)C(F)(F)F)C(C)(C)C	y
COC(=O)N[C@H](C(=O)N[C@@H](Cc1ccc(C#Cc2ccc(N3C[C@@H]4C[C@H]3CN4C3COC3)nc2)cc1)[C@@H](O)CN(Cc1c(F)cc(-c2ccn(C3CC3)n2)cc1F)NC(=O)[C@@H](NC(=O)OC)C(C)(C)C(F)(F)F)C(C)(C)C(F)(F)F	y
COC(=O)N[C@H](C(=O)N[C@@H](Cc1ccc(C#Cc2ccc(N3CC4CC(CN(C(C)=O)C4)C3)nc2)cc1)[C@@H](O)CN(Cc1c(F)cc(-c2cnn(C(F)F)c2)cc1F)NC(=O)[C@@H](NC(=O)OC)C(C)(C)C(F)(F)F)C(C)(C)C(F)(F)F	y
COC(=O)N[C@H](C(=O)N[C@@H](Cc1ccc(C#Cc2cnc(N3CCN(C4COC4)CC3)nc2)cc1)[C@@H](O)CN(Cc1c(F)cc(-c2ncccn2)cc1F)NC(=O)[C@@H](NC(=O)OC)C(C)(C)C(F)(F)F)C(C)(C)C(F)(F)F	n
